All values here come from patent US9611251B2.

# TARGET_OR_SYSTEM: rat orexin 1 receptor (Rattus norvegicus, UniProt P56718)
# TEST_DETAILS: Rat orexin 1 receptor radioligand binding
# EXPERIMENTAL_PARAMETERS: rat orexin 1 receptor radioligand binding; averages of 2-20 runs; read-out: rOX1 Ki
# Experimental: Data are analyzed using pc-Sandy macro and graphed on Graphpad Prism 5. For analysis, each concentration point is averaged from triplicate values and the averaged values are plotted on Graphpad Prism. The IC50 was determined by applying the following equation (GraphPad Prism 5.0, SanDiego) for one site competition where X=log (concentration) and Y=specific binding. […]
pKi: −log10 of the molar value.

MOLECULE	pKi
Cc1cccc(C(=O)N2CCC[C@@H](Oc3ncc(C(F)(F)F)cn3)[C@@H]2C)c1-c1ncc(F)cn1	7.32
Cc1noc(-c2cc(F)ccc2C(=O)N2CCC[C@@H](Nc3ncc(C(F)(F)F)cn3)[C@@H]2C)n1 (relative stereo)	6.48
C[C@H]1[C@H](Oc2ccc(C(F)(F)F)cn2)CCCN1C(=O)c1ccccc1-n1nccn1	7.92
Cc1cnc(-n2nccn2)c(C(=O)N2CCC[C@@H](Oc3ncc(C(F)(F)F)cn3)[C@@H]2C)c1	6.43
CCOc1ccc(C)nc1C(=O)N1CCC[C@@H](Oc2ccc(C(F)(F)F)cn2)[C@@H]1C	7.29
C[C@H]1[C@H](Nc2ccc(C(F)(F)F)cn2)CCCN1C(=O)c1cccc(F)c1-c1ncccn1 (relative stereo)	8.15
C[C@H]1[C@H](Oc2ncc(C(F)(F)F)cn2)CCCN1C(=O)c1nccnc1-c1ccccc1	6.17
C[C@H]1[C@H](Oc2ccc(C(F)(F)F)cn2)CCCN1C(=O)c1cc(F)ccc1-c1ncccn1	7.70
Cc1cnc(C(=O)N2CCC[C@@H](Nc3nnc(C(F)(F)F)s3)[C@@H]2C)c(-n2nccn2)c1 (relative stereo)	6.45
Cc1ccc(-n2nccn2)c(C(=O)N2CCC[C@@H](Oc3ncc(Cl)cn3)[C@@H]2C)n1	6.84
C[C@H]1[C@H](Oc2ncc(C(F)(F)F)cc2F)CCCN1C(=O)c1ccccc1-c1ncccn1	7.34
Cc1cnc(-c2ncccn2)c(C(=O)N2CCC[C@@H](Oc3ccc(C(F)(F)F)cn3)[C@@H]2C)c1	6.92
Cc1ccc(C(=O)N2CCC[C@@H](N(C)c3ccc(C(F)(F)F)cn3)[C@@H]2C)c(-n2nccn2)n1 (relative stereo)	7.04
Cc1cnc(C(=O)N2CCC[C@@H](Nc3cnc(Cl)cn3)[C@@H]2C)c(-n2nccn2)c1 (relative stereo)	7.03
C[C@H]1[C@H](Nc2ncc(C(F)(F)F)cn2)CCCN1C(=O)c1ccc(F)cc1-n1nccn1 (relative stereo)	6.92
CCOc1ccc(C)nc1C(=O)N1CCC[C@@H](Nc2ncc(C(F)(F)F)cn2)[C@@H]1C (relative stereo)	6.81
Cc1ccc(C(=O)N2CCC[C@@H](Oc3cnc(C(F)(F)F)cn3)[C@@H]2C)c(-n2nccn2)c1	7.60
Cc1cnc(-n2nccn2)c(C(=O)N2CCC[C@@H](Oc3ncc(C(F)(F)F)cc3F)[C@@H]2C)c1	7.31
Cc1ccc(C(=O)N2CCC[C@@H](Oc3ccc(C(F)(F)F)cn3)[C@@H]2C)c(-n2nccn2)c1	8.15
COc1ccc(C(=O)N2CCC[C@@H](Oc3ncc(C(F)(F)F)cn3)[C@@H]2C)c(-n2nccn2)c1	6.30
Cc1cccc(C(=O)N2CCC[C@@H](Oc3ncc(C(F)(F)F)cc3F)[C@@H]2C)c1-n1nccn1	7.44
Cc1ccc(-c2ncccn2)c(C(=O)N2CCC[C@@H](Oc3ncc(C(F)(F)F)cc3F)[C@@H]2C)n1	7.46
C[C@H]1[C@H](Oc2cnc(C(F)(F)F)cn2)CCCN1C(=O)c1cccnc1-n1nccn1	5.47
C[C@H]1[C@H](Nc2ccc(C(F)(F)F)cn2)CCCN1C(=O)c1ccc(F)cc1-c1ncccn1 (relative stereo)	7.92
Cc1ccc(C(=O)N2CCC[C@@H](Nc3nnc(C(F)(F)F)s3)[C@@H]2C)c(-n2nccn2)n1 (relative stereo)	5.74
Cc1ccc(C(=O)N2CCC[C@@H](Oc3ccc(C(F)(F)F)cn3)[C@@H]2C)c(-n2nccn2)n1	7.49
COc1ccc(C(=O)N2CCC[C@@H](Nc3ccc(Cl)cn3)[C@@H]2C)c(-n2nccn2)c1 (relative stereo)	7.03
Cc1ccc(-c2ncccn2)c(C(=O)N2CCC[C@@H](Oc3ccc(C(F)(F)F)cn3)[C@@H]2C)n1	7.64
